assay: NCI Yeast Anticancer Drug Screen. Data for the bub3 strain (AID 167); conditions: S. cerevisiae bub3 mutant strain, at 50.0 µM, stronger effect = higher value
This is part of a sample that, as a whole, favours compounds with a hit. Of some 79,000 tested, about 15% had one in any assay.
growth inhibition reference
Write the answer as a number in %, unit excluded.

Worked set:
> print(dat)
                                   compound  readout.number
1  CC(=O)OC1CCC2(C)C(CC(=O)C3C2CCC2(C)C(OC(C)=O)CCC32)C1 (configuration not stated)            -4.2
2                          C[N+](C)=C(Cl)Cl           -7.85
3  CC(=O)[CH-]C(C)=O.CC(=O)[CH-]C(C)=O.CC(=O)[CH-]C(C)=O.[Cl-].[Hf+4]           -9.75
4  CCCCCCCCCCCCCCCCP(=O)(O)OP(=O)(O)OCC1OC(n2cnc3c(N)ncnc32)C(O)C1O (configuration not stated)            44.6

Input: Using the record for COc1c(O)cc2c(c1OC)-c1ccc(SC)c(=O)cc1C(NC(C)=O)CC2 (configuration not stated) , report its growth inhibition.
Output: 1.95

Input: Follow-up entry: F[C](F)(F)[Hg][c]1ccccc1
Output: 99.5

Input: Now consider [Cl][Sn]1([Cl])[CH2]CC[CH2][Sn]([Cl])([Cl])[CH2]CC[CH2]1 and answer again.
Output: -5.4

====

In this section we review reported growth inhibition values for a set of compounds.
test: NCI Yeast Anticancer Drug Screen. Data for the bub3 strain (AID 167); settings: S. cerevisiae bub3 mutant strain, at 50.0 µM, stronger effect = higher value
This is part of a sample that, as a whole, favours compounds with a hit. Of some 79,000 tested, about 15% had one in any assay.
# value in %; strip the unit string

Sample answers from the record:
Compound	Unit tag	growth inhibition
[C-]#[O+].[C-]#[O+].[C-]#[O+].[C-]#[O+].[Cr].c1ccc([PH+](CC[PH+](c2ccccc2)c2ccccc2)c2ccccc2)cc1	%	0.35
CC(CN1NC12CCCC2)N1NC12CCCC2 (centres undefined)	%	15.6
CC([NH-])C[NH-].CC([NH-])C[NH-].[Cl-].[Cl-].[Co+3].[O-][Cl+3]([O-])([O-])O (centres undefined)	%	16.9
C1=CC2C=CC(C=C1)[PH+]2c1ccccc1.C1=CC2C=CC(C=C1)[PH+]2c1ccccc1.[C-]#[O+].[C-]#[O+].[C-]#[O+].[Fe] (centres undefined)	%	10.6
C/C=C(/C)C(=O)O[C@H]1CC[C@@]2(C)[C@@H]3CC[C@H]4[C@]5(O)C[C@H](O)[C@@]6(O)[C@@H](CN7C[C@@H](C)CC[C@H]7[C@@]6(C)O)[C@]5(O)C[C@@]42O[C@@]13O	%	22.8
FC(F)(F)[S-].FC(F)(F)[S-].[C-]#[O+].[C-]#[O+].[C-]#[O+].[C-]#[O+].[C-]#[O+].[C-]#[O+].[C-]#[O+].[C-]#[O+].[Mn].[Mn]	%	99

Input: Recorded growth inhibition of CC1(C)OP(=O)(c2ccccc2)C=C1Br (centres undefined) , please.
Output: -2.75

Input: Another compound: CC(C(=O)c1ccccc1)N(C)C (centres undefined)
Output: -19.7

Input: Same again, this time with CC1(Cl)C(=O)NC(=O)NC1O (centres undefined)
Output: 0.1

Each recorded value in this set is attributed to PubChem BioAssay (NCI).
